Reference for the values: ChEMBL document CHEMBL4334438

test system: Glycogen synthase kinase-3 alpha (Homo sapiens), P49840 [UNDEFINED MUTATION]; assay: Inhibition of human GSK-3alpha S449A mutant (2 to end residues) at 10 uM using phospho GS2 peptide as substrate after 40 mins in presence of [gamma-33ATP] by scintillation counting method relative to control
Sequence (P49840 whole entry, looked up, stated change not applied): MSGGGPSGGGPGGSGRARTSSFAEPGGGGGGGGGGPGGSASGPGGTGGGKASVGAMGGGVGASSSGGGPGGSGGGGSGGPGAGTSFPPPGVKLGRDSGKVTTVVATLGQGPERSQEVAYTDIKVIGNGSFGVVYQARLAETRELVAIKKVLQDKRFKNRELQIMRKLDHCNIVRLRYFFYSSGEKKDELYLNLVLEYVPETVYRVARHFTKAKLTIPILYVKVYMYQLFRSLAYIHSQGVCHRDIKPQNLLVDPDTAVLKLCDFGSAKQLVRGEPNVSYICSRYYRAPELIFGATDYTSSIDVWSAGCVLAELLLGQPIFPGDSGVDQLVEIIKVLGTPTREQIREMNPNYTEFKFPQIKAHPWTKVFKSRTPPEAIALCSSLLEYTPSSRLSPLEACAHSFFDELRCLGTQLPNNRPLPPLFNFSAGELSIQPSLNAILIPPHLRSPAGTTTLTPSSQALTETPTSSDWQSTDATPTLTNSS
Parameter: inhibition. Scope: all listed entries.

| smiles_text | target_or_system | inhibition / % |
| --- | --- | --- |
| COc1ccc([N+](=O)[O-])cc1-c1ccc(/C=C2/S/C(=N\C(C)=O)NC2=O)o1 | Glycogen synthase kinase-3 alpha (Homo sapiens), P49840 [UNDEFINED MUTATION] | 9 |
| COc1cc(/C=C2/C(=O)NC(=O)N(c3ccccc3)C2=O)ccc1O | Glycogen synthase kinase-3 alpha (Homo sapiens), P49840 [UNDEFINED MUTATION] | 14 |
| N=C1NC(=O)/C(=C\c2ccc(-c3ccc(Cl)cc3Cl)o2)S1 | Glycogen synthase kinase-3 alpha (Homo sapiens), P49840 [UNDEFINED MUTATION] | 82 |
| COC(=O)c1ccc(-c2ccc(/C=C3\C(=O)NC(=N)N3C)o2)cc1 | Glycogen synthase kinase-3 alpha (Homo sapiens), P49840 [UNDEFINED MUTATION] | 32 |
| N=C1NC(=O)/C(=C\c2ccc(-c3ccc([N+](=O)[O-])cc3Cl)o2)S1 | Glycogen synthase kinase-3 alpha (Homo sapiens), P49840 [UNDEFINED MUTATION] | 20 |
| O=C1NC(=S)N/C1=C/c1ccc(-c2ccc(Cl)c(Cl)c2)o1 | Glycogen synthase kinase-3 alpha (Homo sapiens), P49840 [UNDEFINED MUTATION] | 65 |
| COc1cc(CNc2ccc(CNc3nc[nH]n3)cc2)ccc1OCC(=O)NC(C)(C)C | Glycogen synthase kinase-3 alpha (Homo sapiens), P49840 [UNDEFINED MUTATION] | 1 |
| NC(=O)CSc1nc2c(N)ncnc2n1Cc1ccccc1 | Glycogen synthase kinase-3 alpha (Homo sapiens), P49840 [UNDEFINED MUTATION] | -10 |
| Cc1c(-c2ccc(/C=C3/SC(=N)NC3=O)o2)ccc([N+](=O)[O-])c1C | Glycogen synthase kinase-3 alpha (Homo sapiens), P49840 [UNDEFINED MUTATION] | 64 |
| N=C1NC(=O)/C(=C\c2ccc(-c3cc([N+](=O)[O-])ccc3Cl)o2)S1 | Glycogen synthase kinase-3 alpha (Homo sapiens), P49840 [UNDEFINED MUTATION] | 71 |
| NS(=O)(=O)c1ccc(N/C=C2/C(=O)NC(=O)N(c3ccccc3)C2=O)cc1 | Glycogen synthase kinase-3 alpha (Homo sapiens), P49840 [UNDEFINED MUTATION] | 17 |
| CC(=O)/N=C1/NC(=O)/C(=C\c2ccc(-c3ccccc3C(=O)O)o2)S1 | Glycogen synthase kinase-3 alpha (Homo sapiens), P49840 [UNDEFINED MUTATION] | 11 |
| COc1cc([N+](=O)[O-])ccc1-c1ccc(/C=C2/SC(=N)NC2=O)o1 | Glycogen synthase kinase-3 alpha (Homo sapiens), P49840 [UNDEFINED MUTATION] | 29 |
| O=C(N/N=C/c1cccnc1)c1cc(-c2cccc3ccccc23)n[nH]1 | Glycogen synthase kinase-3 alpha (Homo sapiens), P49840 [UNDEFINED MUTATION] | 12 |
| O=C1NC(=S)N/C1=C/c1ccc(-c2cc([N+](=O)[O-])ccc2Cl)o1 | Glycogen synthase kinase-3 alpha (Homo sapiens), P49840 [UNDEFINED MUTATION] | 22 |
| CN1C(=N)NC(=O)/C1=C\c1ccc(-c2ccc(F)cc2)o1 | Glycogen synthase kinase-3 alpha (Homo sapiens), P49840 [UNDEFINED MUTATION] | 81 |
| O=C(CSc1nc2ccccc2[nH]c1=O)Nc1ccc2c(c1)OCO2 | Glycogen synthase kinase-3 alpha (Homo sapiens), P49840 [UNDEFINED MUTATION] | 2 |
| Cc1ccccc1OCC(=O)Nc1ccc(Oc2ccc3c(c2)C(=O)NC3=O)cc1 | Glycogen synthase kinase-3 alpha (Homo sapiens), P49840 [UNDEFINED MUTATION] | 54 |
| CCCN1C(=O)/C(=C\c2ccc(-c3ccc(Cl)cc3)o2)NC1=S | Glycogen synthase kinase-3 alpha (Homo sapiens), P49840 [UNDEFINED MUTATION] | 17 |
| O=C(CSc1nnc(CCc2nnc(SCC(=O)c3ccccc3)[nH]2)[nH]1)c1ccccc1 | Glycogen synthase kinase-3 alpha (Homo sapiens), P49840 [UNDEFINED MUTATION] | 25 |
| O=C1N/C(=N/Cc2ccccc2)S/C1=C/c1ccc(-c2ccccc2)o1 | Glycogen synthase kinase-3 alpha (Homo sapiens), P49840 [UNDEFINED MUTATION] | 30 |
| NC1=NC(=O)/C(=C\c2ccc(-c3ccccc3[N+](=O)[O-])o2)S1 | Glycogen synthase kinase-3 alpha (Homo sapiens), P49840 [UNDEFINED MUTATION] | 91 |
| CCCOC(=O)c1cc(-c2ccc(/C=C3/NC(=S)NC3=O)o2)ccc1Cl | Glycogen synthase kinase-3 alpha (Homo sapiens), P49840 [UNDEFINED MUTATION] | 88 |
| COc1ccc([N+](=O)[O-])cc1-c1ccc(/C=C2/SC(=N)NC2=O)o1 | Glycogen synthase kinase-3 alpha (Homo sapiens), P49840 [UNDEFINED MUTATION] | 15 |
| O=C1N/C(=N/c2ccccc2)S/C1=C/c1ccc(-c2cccc(C(=O)O)c2)o1 | Glycogen synthase kinase-3 alpha (Homo sapiens), P49840 [UNDEFINED MUTATION] | 15 |
| N=C1NC(=O)/C(=C\c2ccc(-c3cccc(C(=O)O)c3)o2)S1 | Glycogen synthase kinase-3 alpha (Homo sapiens), P49840 [UNDEFINED MUTATION] | 97 |
| CN1C(=O)/C(=C\c2ccc(-c3cccc(Cl)c3)o2)N(C)C1=S | Glycogen synthase kinase-3 alpha (Homo sapiens), P49840 [UNDEFINED MUTATION] | 13 |
| Nc1nc(CCCc2n[nH]c(N)n2)n[nH]1 | Glycogen synthase kinase-3 alpha (Homo sapiens), P49840 [UNDEFINED MUTATION] | 16 |
